Each recorded value in this set is attributed to PubChem BioAssay (NCI).

Test system: MDA-MB-468 breast
Experiment: NCI-60 one-dose screen, 48 h (100 = growth as untreated, 0 = no growth, -100 = all killed)
Conditions: 10 µM unless noted
This is part of a sample that, as a whole, favours compounds with a hit. Of some 83,000 tested, about 20% had one in any assay.
parameter measured: growth (%)
Write down the numeric answer in % and omit the unit.

These solved cases illustrate the format of a correct answer.
Cc1cc(Nc2ncnc3ccc(NC4=NC(C)(C)CO4)cc23)ccc1Oc1ccn2ncnc2c1 = -60.6
O=[N+]([O-])c1ccc(N=Nc2ccccc2)cc1 = 109

Using the record for COC(=O)c1nc(N)nc(C(=O)OC)c1C(=O)c1ccc(F)cc1 , report its growth.
101

Need growth, item Cc1cccc(C(=O)O)n1
111

Could you tell me which growth is on file for C[n+]1c(/C=C/c2c[nH]c3ccccc23)ccc2ccccc21 ?
23

I am curious: what growth value has been reported for COc1ccc(-c2nsc3c2NC(=O)CC3c2cccc(Cl)c2)cc1 (configuration not stated) ?
-6.39

Which growth reading was recorded for the molecule CCCCCCCCCCCCCCCC1=NC(C)(C)CN1C(C)C ?
-58.8
